Tested on: U2OS
protocol description: Multiplex assay against U2OS
Format: toxicity, cell-based
cond: human, 24 h, 1 µM, compound concentration 1 uM, replicate 2
observation type: Population Normal (%)
Field: value (include unit after the number)

Please fill in: Population Normal (%) reported for `CC[C@H](Nc1ncnc2[nH]cnc12)c1nc2cccc(F)c2c(=O)n1-c1ccccc1` = 94%

Please fill in: Population Normal (%) reported for `CC(C)c1cc(Nc2nc(N3CCC[C@H](N)C3)ncc2C(N)=O)cc(C(C)C)n1` = 94%

Please fill in: Population Normal (%) reported for `Oc1cccc(-c2nc(N3CCOCC3)c3oc4ncccc4c3n2)c1` = 93%

====

Tested on: Fibroblast
protocol description: Multiplex assay against human fibroblast
Assay type: toxicity, cell-based
cond: 12 h, 1 µM, compound concentration 1 uM, replicate 2
Can you tell me Population Fragmented Nuclei (%) for the items I'm about to list?
Report the figure in % without appending any unit label.

Please fill in: Population Fragmented Nuclei (%) reported for `Oc1cccc(-c2nc(N3CCOCC3)c3oc4ncccc4c3n2)c1` = 10

Please fill in: Population Fragmented Nuclei (%) reported for `CC(C)c1cc(Nc2nc(N3CCC[C@H](N)C3)ncc2C(N)=O)cc(C(C)C)n1` = 12

Please fill in: Population Fragmented Nuclei (%) reported for `N#CCNC(=O)c1ccc(-c2ccnc(Nc3ccc(N4CCOCC4)cc3)n2)cc1` = 1

Please fill in: Population Fragmented Nuclei (%) reported for `C=CC(=O)Nc1cc(-n2c(=O)ccc3cnc4ccc(-c5ccc(NS(C)(=O)=O)cc5)cc4c32)ccc1C` = 10

Please fill in: Population Fragmented Nuclei (%) reported for `Cl.NC[C@@H]1O[C@H](C23CC4CC(CC(C4)C2)C3)Cc2c1ccc(O)c2O` = 6

Please fill in: Population Fragmented Nuclei (%) reported for `Cc1ccc(S(=O)(=O)NC2c3ccccc3Oc3ccccc32)cc1` = 10

Please fill in: Population Fragmented Nuclei (%) reported for `CN(c1cc(C(F)(F)F)nc(OCCC(=O)O)n1)c1cccc2c1CCC2` = 9

Please fill in: Population Fragmented Nuclei (%) reported for `CCOC(=O)CCNc1cc(N2CCc3ccccc3CC2)nc(-c2ccccn2)n1` = 47

Please fill in: Population Fragmented Nuclei (%) reported for `C[C@@H](Oc1cc(-n2cnc3ccc(CN4CCN(C)CC4)cc32)sc1C(N)=O)c1ccccc1C(F)(F)F` = 12

Please fill in: Population Fragmented Nuclei (%) reported for `CCCCN(CC)c1nc(C)nc2c1c(C)cn2-c1c(C)cc(C)cc1C.Cl` = 13

Please fill in: Population Fragmented Nuclei (%) reported for `CC[C@H](Nc1ncnc2[nH]cnc12)c1nc2cccc(F)c2c(=O)n1-c1ccccc1` = 56

Please fill in: Population Fragmented Nuclei (%) reported for `NC(=O)c1ccc2nc(-c3ccc(C4(N)CCC4)cc3)c(-c3ccccc3)n2n1` = 56

Please fill in: Population Fragmented Nuclei (%) reported for CCCCCNC(=N)N/N=C/c1c[nH]c2ccc(OC)cc12.O=C(O)/C=C\C(=O)O [TEGASEROD MALEATE] = 12

Please fill in: Population Fragmented Nuclei (%) reported for `CCCc1cc(C)[nH]c(=O)c1CNC(=O)c1cc(-c2ccc(N3CCN(C(C)C)CC3)nc2)cc2c1cnn2C(C)C` = 19

Please fill in: Population Fragmented Nuclei (%) reported for `CC(/C=C1\SC(=S)N(CCCC(=O)Nc2ccc(C(=O)O)c(O)c2)C1=O)=C\c1ccccc1` = 10
